Test system: Ctenocephalides felis
Method: b) Ctenocephalides felis Adulticide Assay: C. felis Single Dose Screen Mortality of fleas was the primary endpoint in the assay. Fleas were considered dead if they didn't move or were on their sides and unable to walk or right themselves. […] The concentration chosen (1.26 μg/cm^2) was higher than that known to kill 90% of cat fleas (LC90) using the reference compound, permethrin. The test species was the cat flea (Ctenocephalides felis). […]
reportedMetric: C. felis Mortality (%) 8 h
The response must be a number in % with no trailing unit.

Use the examples below as a reference point.
itemsmiles=CCCN(N=C(C)c1cc(Cl)ccc1NS(=O)(=O)C(F)(F)F)c1ccccc1 reportedmetric="C. felis Mortality (%) 8 h" numericvalue=100
itemsmiles=CCCN(N=C(C)c1cc(Cl)ccc1NS(=O)(=O)C(F)(F)F)c1ccc(Br)cc1 reportedmetric="C. felis Mortality (%) 8 h" numericvalue=71
itemsmiles=CCC(=NN(C)C(=O)c1ccc(Cl)cc1)c1cc(Cl)ccc1NS(=O)(=O)C(F)(F)F reportedmetric="C. felis Mortality (%) 8 h" numericvalue=100
itemsmiles=CC(=NN(C)c1cccc(F)c1)c1cc(Cl)ccc1NS(=O)(=O)C(F)(F)F reportedmetric="C. felis Mortality (%) 8 h" numericvalue=100

Lab note: record C. felis Mortality (%) 8 h of `CCCN(N=C(C)c1cc(Cl)ccc1NS(=O)(=O)C(F)(F)F)c1cc(Cl)cc(Cl)c1` tested on Ctenocephalides felis.
19

Lab note: record C. felis Mortality (%) 8 h of `CC(=NN(c1ccccc1Cl)C(C)C)c1cc(Cl)ccc1NS(=O)(=O)C(F)(F)F` tested on Ctenocephalides felis.
51

Lab note: record C. felis Mortality (%) 8 h of `CCOC(=O)N(CC)N=C(C)c1cc(Cl)ccc1NS(=O)(=O)C(F)(F)F` tested on Ctenocephalides felis.
82

Lab note: record C. felis Mortality (%) 8 h of `CC(=Nn1c(=O)oc2ccccc21)c1cc(Cl)ccc1NS(=O)(=O)C(F)(F)F` tested on Ctenocephalides felis.
2

Lab note: record C. felis Mortality (%) 8 h of `CC(=NNC(=O)c1ccc(Cl)cc1)c1cc(Cl)ccc1NS(=O)(=O)C(F)(F)F` tested on Ctenocephalides felis.
6

Lab note: record C. felis Mortality (%) 8 h of `O=S(=O)(Nc1ccc(Cl)cc1-c1ccnn1-c1ccc(Cl)cc1)C(F)(F)F` tested on Ctenocephalides felis.
0

Lab note: record C. felis Mortality (%) 8 h of `CC(=NN(C)C(=O)c1ccc(Cl)cc1)c1cc(Cl)ccc1NS(=O)(=O)C(F)(F)F` tested on Ctenocephalides felis.
100

Lab note: record C. felis Mortality (%) 8 h of `CCN(N=C(C)c1cc(Cl)ccc1NS(=O)(=O)C(F)(F)F)C1CCCC1` tested on Ctenocephalides felis.
7

Lab note: record C. felis Mortality (%) 8 h of `CC(=NN(C)c1ccc(C)cc1)c1cc(Cl)ccc1NS(=O)(=O)C(F)(F)F` tested on Ctenocephalides felis.
100

Lab note: record C. felis Mortality (%) 8 h of `CCCN(N=C(C)c1cc(Cl)ccc1NS(=O)(=O)C(F)(F)F)c1ccc(Cl)c(Cl)c1` tested on Ctenocephalides felis.
52

Lab note: record C. felis Mortality (%) 8 h of `CCOCN(c1ccc(Cl)cc1C(C)=NN(C)c1ccccc1)S(=O)(=O)C(F)(F)F` tested on Ctenocephalides felis.
99

Lab note: record C. felis Mortality (%) 8 h of `CCCN(N=C(C)c1cc(Cl)ccc1NS(=O)(=O)C(F)(F)F)c1ccc(C)cc1` tested on Ctenocephalides felis.
96

Lab note: record C. felis Mortality (%) 8 h of `CCCN(N=C(C)c1cc(Cl)ccc1NS(=O)(=O)C(F)(F)F)c1cccc(F)c1` tested on Ctenocephalides felis.
100

====

Reported C. felis Mortality (%) 48 h values for a set of molecules
test system: Ctenocephalides felis; settings: 48 h; data from laboratory 1
The response must be a number in % with no trailing unit.

Lab note: record C. felis Mortality (%) 48 h of `CCCN(N=C(C)c1cc(Cl)ccc1NS(=O)(=O)C(F)(F)F)c1ccccc1F` tested on Ctenocephalides felis.
100

Lab note: record C. felis Mortality (%) 48 h of `CCCN(N=C(C)c1cc(Cl)ccc1NS(=O)(=O)C(F)(F)F)c1ccc(Cl)cc1Cl` tested on Ctenocephalides felis.
100

Lab note: record C. felis Mortality (%) 48 h of `CC(=NN(C)c1ccc(Cl)cc1Cl)c1cc(Cl)ccc1N(C)S(=O)(=O)C(F)(F)F` tested on Ctenocephalides felis.
58

Lab note: record C. felis Mortality (%) 48 h of `CCCN(N=C(C)c1cc(Cl)ccc1NS(=O)(=O)C(F)(F)F)c1ccccc1Cl` tested on Ctenocephalides felis.
100

Lab note: record C. felis Mortality (%) 48 h of `CC(=NN(c1ccc(Cl)cc1Cl)C(C)C)c1cc(Cl)ccc1NS(=O)(=O)C(F)(F)F` tested on Ctenocephalides felis.
100

Lab note: record C. felis Mortality (%) 48 h of `CC(=NN(C)c1ccccc1Cl)c1cc(Cl)ccc1N(C)S(=O)(=O)C(F)(F)F` tested on Ctenocephalides felis.
13

Lab note: record C. felis Mortality (%) 48 h of `CCN(N=C(C)c1cc(Cl)ccc1NS(=O)(=O)C(F)(F)F)c1ccccc1` tested on Ctenocephalides felis.
100

====

test system: Ctenocephalides felis; conditions: 8 h; data from laboratory 1
Assign class by C. felis Mortality (%) 8 h: not lower than 5% means yes; lower than 5% means no.

Take a look at these entries with their results.
compound="CC(=NNc1ccc(F)cc1)c1ccc(C(F)(F)F)cc1NS(=O)(=O)C(F)(F)F [Compound 180]" classname=no
compound="COCN(c1ccc(Cl)cc1C(C)=NN(C)c1ccccc1)S(=O)(=O)C(F)(F)F [Compound 110]" classname=yes
compound="C=CCN(N=C(C)c1cc(Cl)ccc1N(CC=C)S(=O)(=O)C(F)(F)F)c1ccc(Cl)cc1 [Compound 170]" classname=no

For this compound, is measured C. felis Mortality (%) 8 h 5% or higher? CC(=NN(C)c1ccc(Cl)nn1)c1cc(Cl)ccc1NS(=O)(=O)C(F)(F)F [Compound 194]
no

For this compound, is measured C. felis Mortality (%) 8 h 5% or higher? CC(=Nn1c(C)nc2ccccc2c1=O)c1cc(Cl)ccc1NS(=O)(=O)C(F)(F)F [Compound 201]
no

For this compound, is measured C. felis Mortality (%) 8 h 5% or higher? COCN(c1ccc(Cl)cc1C(C)=NN1CCCCC1)S(=O)(=O)C(F)(F)F [Compound 146]
yes

For this compound, is measured C. felis Mortality (%) 8 h 5% or higher? CC(=NN1CCCCC1)c1cc2c(cc1NS(=O)(=O)C(F)(F)F)OCO2 [Compound 181]
yes

For this compound, is measured C. felis Mortality (%) 8 h 5% or higher? CN(N=C(c1ccccc1)c1cc(Cl)ccc1NS(=O)(=O)C(F)(F)F)c1ccccc1 (single isomer, unassigned) [Compound 118]
yes

For this compound, is measured C. felis Mortality (%) 8 h 5% or higher? CC(=NN1CCCCCC1)c1cc(Cl)ccc1NS(=O)(=O)C(F)(F)F [Compound 107]
no

For this compound, is measured C. felis Mortality (%) 8 h 5% or higher? C#CCN(c1ccc(Cl)cc1C(C)=NN(C)c1ccccc1)S(=O)(=O)C(F)(F)F [Compound 137]
yes

====

Recorded below: C. felis Mortality (%) 24 h, system Ctenocephalides felis.
The response must be a number in % with no trailing unit.

Use the examples below as a reference point.
compound="CC(=NNC(=O)c1ccc(Cl)cc1)c1cc(Cl)ccc1NS(=O)(=O)C(F)(F)F [Compound 57]" testedtarget="Ctenocephalides felis" reportedmetric="C. felis Mortality (%) 24 h" numericvalue=70
compound="CCN(N=C(C)c1cc(Cl)ccc1NS(=O)(=O)C(F)(F)F)c1ccc(Br)cc1 [Compound 54]" testedtarget="Ctenocephalides felis" reportedmetric="C. felis Mortality (%) 24 h" numericvalue=100
compound="CC(=O)N(N=C(C)c1cc(Cl)ccc1NS(=O)(=O)C(F)(F)F)c1ccccc1 [Compound 183]" testedtarget="Ctenocephalides felis" reportedmetric="C. felis Mortality (%) 24 h" numericvalue=22
compound="CCCCCC(=O)N(CCC#N)/N=C(\\C)c1cc(Cl)ccc1NS(=O)(=O)C(F)(F)F [Compound 224]" testedtarget="Ctenocephalides felis" reportedmetric="C. felis Mortality (%) 24 h" numericvalue=100
compound="CC(=O)N(CCC#N)/N=C(\\C)c1cc(Cl)ccc1NS(=O)(=O)C(F)(F)F [Compound 221]" testedtarget="Ctenocephalides felis" reportedmetric="C. felis Mortality (%) 24 h" numericvalue=100

# return recorded C. felis Mortality (%) 24 h for input CCC(=NN1CCOC1=O)c1cc(Cl)ccc1NS(=O)(=O)C(F)(F)F [Compound 35]
100

# return recorded C. felis Mortality (%) 24 h for input CC(=Nn1c(=O)oc2ccccc21)c1cc(Cl)ccc1NS(=O)(=O)C(F)(F)F [Compound 184]
12

# return recorded C. felis Mortality (%) 24 h for input CCC(=NN1CCOCC1)c1cc(Cl)ccc1NS(=O)(=O)C(F)(F)F [Compound 36]
100

The values you see were collected from patent US20070238700A1.
